# System: HT-1080
# test.description: Modulatory profiling: Alamar Blue viability, lethal compound cotreated with death modulator (EC50, AUC)
# Format: cell-based
# Parameters: unit not given beside the values
# conditions: HT-1080, modulator ATA

{"compound": "Cc1ccc(O)c(/N=C/C=C/c2cccc(Br)c2)c1 [CIL27]", "AUC HT.ATA": 0.04845}
{"compound": "O=c1c(N2CCCC2)c(Cl)cnn1-c1ccccc1 [CIL20]", "AUC HT.ATA": "−0.001276"}
{"compound": "C/C(=N\\Nc1ncc(Cl)cc1Cl)c1ccccn1 [CIL64]", "AUC HT.ATA": 0.1979}
{"compound": "CC1(C)CC(=O)C2=C(C1)OC1=C(C(=O)CC(C)(C)C1)C2c1ccc(O)cc1O [CIL62]", "AUC HT.ATA": 0.02941}
{"compound": "CCCCNc1c(Cl)cnn(-c2ccccc2)c1=O [CIL36]", "AUC HT.ATA": 0.05274}

----------
# Test system: BJeLR
# test.description: Modulatory profiling: Alamar Blue viability, lethal compound cotreated with death modulator (EC50, AUC)
# Format: cell-based, human
# Design: unit not given beside the values
# conditions: BJeLR cells; lethal compound cotreated with modulator Co2+; modulatory profile value (AUC)
Where a SMILES comes first, the peptide text is derived from it. The star is where a group is joined. Cbz = O=C(OCc1ccccc1)*
measure.name: AUC, modulator BJ.Co2+

{"compound": "CC(C)C[C@H](NC(=O)[C@H](Cc1ccccc1)NC(=O)c1cnccn1)B(O)O", "value.observed": 0.2379}
{"compound": "O=C(Oc1ccc(Cl)c2cccnc12)c1ccco1", "value.observed": 0.2386}
{"compound": "COC(C)(C)C#CC(=O)c1cccc2ccccc12", "value.observed": 0.07311}
{"compound": "O=C1c2c(O)ccc(O)c2C(=O)c2c(NCCNCCO)ccc(NCCNCCO)c21", "value.observed": 0.4538}
{"compound": "COc1nn(-c2ccccc2)c(=O)c(Cl)c1Cl", "value.observed": "−0.01594"}
{"compound": "O=C(/C=C/c1cccc(NC(=O)c2cccs2)c1)c1ccccc1", "value.observed": 0.04311}
{"compound": "CCCCS(=O)(=O)/C=C\\C=C/S(=O)(=O)CCCC", "value.observed": 0.009716}
{"compound": "CC(C)[C@@H]1NC(=O)[C@H](C)OC(=O)[C@@H](C(C)C)NC(=O)[C@@H](C(C)C)OC(=O)[C@H](C(C)C)NC(=O)[C@H](C)OC(=O)[C@@H](C(C)C)NC(=O)[C@@H](C(C)C)OC(=O)[C@H](C(C)C)NC(=O)[C@H](C)OC(=O)[C@@H](C(C)C)NC(=O)[C@@H](C(C)C)OC1=O", "value.observed": 0.09595}
{"compound": "COc1cccc2c1C(=O)c1c(O)c3c(c(O)c1C2=O)C[C@@](O)(C(=O)CO)C[C@@H]3O[C@H]1C[C@H](N)[C@H](O)[C@H](C)O1", "value.observed": 0.1971}
{"compound": "O=c1c(Cl)c(Cl)cnn1-c1ccc(Cl)c(C(F)(F)F)c1", "value.observed": "−0.003244"}
{"compound": "O=C(CCCCCN1C(=O)c2cccc3cccc(c23)C1=O)NO", "value.observed": 0.2406}
{"compound": "Nc1ccccc1NC(=O)c1ccc(CNC(=O)OCc2cccnc2)cc1", "value.observed": 0.2326}
{"compound": "CC[C@]1(O)C[C@@H]2CN(CCc3c([nH]c4ccccc34)[C@@](C(=O)OC)(c3cc4c(cc3OC)N(C)[C@H]3[C@@](O)(C(=O)OC)[C@H](OC(C)=O)[C@]5(CC)C=CCN6CC[C@]43[C@@H]65)C2)C1", "value.observed": 0.1876}
{"compound": "CCc1ccc(/C=C2/SC(=O)N(CCC(C)NCCCN3CCOCC3)C2=O)cc1 (stereo not shown)", "value.observed": "−0.1389"}
{"compound": "O=C1c2ccccc2-c2onc3ccc(Oc4ccccc4)c1c23", "value.observed": 0.06961}
{"compound": "Cc1cccnc1Nc1nc(-c2ccccn2)cs1", "value.observed": 0.5287}
{"compound": "CC(C)=CCCC1=CCC(CNCCCN(C)C)C(C)C1 (stereo not shown)", "value.observed": 0.03417}
{"compound": "Cc1cccc(-n2ncc(Cl)c(Cl)c2=O)c1", "value.observed": 0.07615}
{"compound": "CC(C)C[C@@H](C=O)NC(=O)[C@H](CC(C)C)NC(=O)[C@H](CC(C)C)NC(=O)OCc1ccccc1 [MG132, reference compound] (Cbz-Leu-Leu-Leu-aldehyde)", "value.observed": 0.1849}
{"compound": "COc1ccc(-n2nnnc2S(=O)(=O)CC(=O)N2CCCCC2)cc1", "value.observed": 0.05392}
{"compound": "O=c1c(N2CCCC2)c(Cl)cnn1-c1ccccc1", "value.observed": 0.04763}
{"compound": "C[S+]([O-])c1nc(-c2ccc(Br)cc2)cc(-c2ccccc2)c1C#N (stereo not shown)", "value.observed": "−0.04764"}

----------
# Test system: HT-1080
# test.description: Modulatory profiling: Alamar Blue viability, lethal compound cotreated with death modulator (EC50, AUC)
# Assay type: cell-based
# conditions: HT-1080, modulator LNAME
Lab note: anything with AUC HT.LNAME at or over 0.01 counts as MET; the rest go in NOT MET.

{"molecule": "O=c1c(Cl)c(Cl)cnn1-c1ccc(Cl)cc1", "class": "MET"}
{"molecule": "CCOc1ccccc1-n1c(C(C)N2CCN(C(=O)COc3ccc(Cl)cc3)CC2)nc2ccccc2c1=O (stereo not drawn) [erastin, reference compound]", "class": "NOT MET"}
{"molecule": "COC(C)(C)C#CC(=O)c1cccc2ccccc12", "class": "NOT MET"}
{"molecule": "N/C(=N\\OC(=O)C12CC3CC(CC(C3)C1)C2)c1ccccc1", "class": "NOT MET"}
{"molecule": "C(=N\\Nc1nc2ccccc2s1)/c1ccccn1", "class": "NOT MET"}
{"molecule": "COc1ccc(N(C(=O)CCl)C(C(=O)NCCc2ccccc2)c2cccs2)cc1 (stereo not drawn)", "class": "MET"}
{"molecule": "COc1cccc(-n2nnnc2S(C)(=O)=O)c1", "class": "MET"}
{"molecule": "Cc1cc(C)c2c(=O)n(CC(=O)NCCCN3CCN(c4ccccc4F)CC3)sc2n1", "class": "MET"}
{"molecule": "CC(C)C[C@H](NC(=O)[C@H](CC(C)C)NC(=O)[C@H](CC(C)C)NC(=O)OCc1ccccc1)B(O)O", "class": "NOT MET"}
{"molecule": "COc1cc([C@@H]2c3cc4c(cc3[C@H](O)[C@H]3COC(=O)[C@H]23)OCO4)cc(OC)c1OC", "class": "NOT MET"}
{"molecule": "O=c1c(Cl)c(Cl)cnn1-c1ccc(Cl)c(C(F)(F)F)c1", "class": "MET"}
{"molecule": "CCc1ccc(/C=C2/SC(=O)N(CCC(C)NCCCN3CCOCC3)C2=O)cc1 (stereo not drawn)", "class": "NOT MET"}

----------
# System: HT-1080
# test.description: Modulatory profiling: Alamar Blue viability, lethal compound cotreated with death modulator (EC50, AUC)
# Format: cell-based
# conditions: HT-1080, modulator NMMA
Lab note: anything with AUC HT.NMMA at or over -0.002 counts as label 1; the rest go in label 0.

{"compound": "C[C@H]1CCC[C@]2(C)C[C@H]3OC(=O)[C@H](CN4CCCC4)[C@H]3C=C12", "class": "label 0"}
{"compound": "O=C(Oc1ccc(Cl)c2cccnc12)c1ccco1", "class": "label 0"}
{"compound": "COc1cc([C@@H]2c3cc4c(cc3[C@H](O)[C@H]3COC(=O)[C@H]23)OCO4)cc(OC)c1OC", "class": "label 1"}
{"compound": "CC1(C)CC(=O)C2=C(C1)OC1=C(C(=O)CC(C)(C)C1)C2c1ccc(O)cc1O", "class": "label 0"}
{"compound": "CCC(C(NNC(=O)c1ccc(C(F)(F)F)cc1)c1ccc(C(F)(F)F)cc1)[N+](=O)O (stereo not shown)", "class": "label 1"}
{"compound": "O=C(CCCCCN1C(=O)c2cccc3cccc(c23)C1=O)NO", "class": "label 1"}
{"compound": "COc1ccc(N(C(=O)CCl)C(C(=O)NCCc2ccccc2)c2cccs2)cc1 (stereo not shown)", "class": "label 1"}
{"compound": "CCOC(=O)[C@@H]1[C@@H](c2ccccc2)C(=O)CCN1NC(=O)c1ccccc1", "class": "label 0"}
{"compound": "COc1cc([C@@H]2c3cc4c(cc3[C@@H](O[C@@H]3O[C@@H]5CO[C@@H](C)O[C@H]5[C@H](O)[C@H]3O)[C@H]3COC(=O)[C@H]23)OCO4)cc(OC)c1O [Etoposide]", "class": "label 1"}
{"compound": "CC(C)=CCCC1=CCC(CNCCCN(C)C)C(C)C1 (stereo not shown)", "class": "label 0"}
{"compound": "C=CCC1(Cl)C(=O)C(Cl)=C(n2ccnc2)C1(OC)OC (stereo not shown)", "class": "label 0"}
{"compound": "O=C(/C=C/c1cccc(NC(=O)c2cccs2)c1)c1ccccc1", "class": "label 0"}
{"compound": "O=S1(=O)Nc2c(ccc3cccnc23)-c2ccccc21", "class": "label 0"}
